Value source: ChEMBL document CHEMBL1142515

- experimentalTarget: Histamine H4 receptor (Homo sapiens, UniProt Q9H3N8)
- Sequence (Q9H3N8 whole entry): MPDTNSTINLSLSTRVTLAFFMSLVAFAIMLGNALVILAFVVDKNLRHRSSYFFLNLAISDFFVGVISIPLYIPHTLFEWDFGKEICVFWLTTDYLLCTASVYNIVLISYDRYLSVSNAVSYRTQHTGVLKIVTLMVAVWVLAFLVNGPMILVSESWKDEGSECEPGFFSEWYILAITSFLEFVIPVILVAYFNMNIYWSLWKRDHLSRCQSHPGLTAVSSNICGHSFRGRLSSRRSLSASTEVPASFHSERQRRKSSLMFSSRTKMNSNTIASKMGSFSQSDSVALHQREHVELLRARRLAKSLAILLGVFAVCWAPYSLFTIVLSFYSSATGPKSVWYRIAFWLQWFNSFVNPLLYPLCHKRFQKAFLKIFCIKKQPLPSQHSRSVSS
pIC50: −log10 of the molar value.
measurementType: pIC50

Cc1nc2cccc(F)c2c(=O)n1-c1ccc(OC2CCN(C3CCC3)CC2)cc1 :: < 5.00

Q: Short answer please: pIC50, Histamine H4 receptor (Homo sapiens, UniProt Q9H3N8), entry Cc1nc2cccc(C(F)(F)F)c2c(=O)n1-c1ccc(OC2CCN(C3CCC3)CC2)cc1
Result: < 5.00

====

- experimentNotes: Plasma clearance in Beagle dog at 0.3 mg/kg, iv
- Format: ADME, organism-based, Canis lupus familiaris
- Parameters: dose 0.3 mg/kg, route intravenous
Reported clearance values are given for each entry in this list.
Express the result in L/h/kg but write the number alone.

Cc1nc2cccc(F)c2c(=O)n1-c1ccc(OC2CCN(C3CCC3)CC2)cc1 :: 2.64

Q: Tell me the measured clearance of Cc1nc2cccc(C(F)(F)F)c2c(=O)n1-c1ccc(OC2CCN(C3CCC3)CC2)cc1 , please.
Result: 0.78

====

- experimentalTarget: Histamine H3 receptor (Homo sapiens)
- Sequence (Q9Y5N1 whole entry): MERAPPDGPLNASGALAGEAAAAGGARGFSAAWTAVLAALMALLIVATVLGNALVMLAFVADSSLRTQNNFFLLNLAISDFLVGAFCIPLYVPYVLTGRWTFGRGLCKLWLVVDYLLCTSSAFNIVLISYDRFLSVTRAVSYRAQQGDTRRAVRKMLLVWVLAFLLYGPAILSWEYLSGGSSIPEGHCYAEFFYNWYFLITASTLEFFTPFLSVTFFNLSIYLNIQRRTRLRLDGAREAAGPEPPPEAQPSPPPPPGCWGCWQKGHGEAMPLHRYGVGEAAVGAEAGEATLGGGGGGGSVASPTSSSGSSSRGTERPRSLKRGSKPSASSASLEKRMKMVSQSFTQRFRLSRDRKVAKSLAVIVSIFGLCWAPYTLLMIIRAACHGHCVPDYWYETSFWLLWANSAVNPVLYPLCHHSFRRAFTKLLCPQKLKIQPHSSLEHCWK
- experimentNotes: Antagonist activity at human cloned histamine H3 receptor expressed in CHO-K1 cells assessed as inhibition of R-alpha-methylhistamine-induced [35S]GTPgammaS binding
- Type: functional, cell-based
Classes based on IC50: 0 (below 3 nM), 1 (3 nM to below 10 nM), 2 (10 nM or more)

Cc1nc2ccccc2c(=O)n1-c1ccc(OC2CCN(C3CCCC3)CC2)cc1 :: 1
Cc1nc2ncccc2c(=O)n1-c1ccc(OC2CCN(C3CCC3)CC2)cc1 :: 0
CCCN1CCC(Oc2ccc(-n3c(C)nc4ccccc4c3=O)cc2)CC1 :: 2
COc1cccc2c(=O)n(-c3ccc(OC4CCN(C5CCC5)CC4)cc3)c(C)nc12 :: 1
Cc1nc2cccc(C(F)(F)F)c2c(=O)n1-c1ccc(OC2CCN(C3CCC3)CC2)cc1 :: 0

Q: Could you place Cc1nc2cccc(Cl)c2c(=O)n1-c1ccc(OC2CCN(C3CCC3)CC2)cc1 in its proper category? Many thanks.
Result: 0

Q: Would you mind sorting Cc1nc2ccccc2c(=O)n1-c1ccc(OC2CCC(N3CCCC3)C2)cc1 (stereo in doubt; 3a) into the appropriate category?
Result: 1

Q: GET /class?item= Cc1nc2cccnc2c(=O)n1-c1ccc(OC2CCN(C3CCC3)CC2)cc1
Result: 2

Q: Which IC50 band matches CCCCN1CCC(Oc2ccc(-n3c(C)nc4ccccc4c3=O)cc2)CC1 ?
Result: 2

====

- experimentNotes: Ex vivo drug level in mdr1a (-/-) deficient CF1 mouse plasma at 1 mg/kg, po after 2 hrs
- Type: ADME, organism-based
- Design: dose 1 mg/kg, route oral
- measurementConditions: read-out: Drug uptake
measurementType: concentration at 2 h (nM)
Give the quantity in nM, number only.

Q: Find the recorded concentration at 2 h belonging to Cc1nc2cccc(C(F)(F)F)c2c(=O)n1-c1ccc(OC2CCN(C3CCC3)CC2)cc1 and report it.
Result: 10

====

- experimentNotes: Ratio of drug level brain to plasma in wild type mdr1a (+/+) CF1 mouse at 1 mg/kg, po after 2 hrs
- Assay type: ADME, organism-based
- Parameters: dose 1 mg/kg, route oral
- measurementConditions: read-out: BPR
measurementType: Kp at 2 h
In your answer, state the number alone without any accompanying words.

Q: Any idea what Kp at 2 h was measured for Cc1nc2cccc(C(F)(F)F)c2c(=O)n1-c1ccc(OC2CCN(C3CCC3)CC2)cc1 ?
Result: 2.6
